B1: LINE1-mini (parent)
chain: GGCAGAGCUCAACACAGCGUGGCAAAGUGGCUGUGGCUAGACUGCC

# Variants of: B1
# testName: self-cleavage, relative activity (ratio to wild type); higher = more cleavage; in vitro, sequencing; the parent is a self-cleaving ribozyme
experimentalReadout: self-cleavage
Answer using only a numeral; do not append any unit.

G17A A24U; 0.38
A6G C45A; 0.15
A6G C18U; 0.08
A16U G21A; 0.23
G1C U28C; 0.02
U9C G40U; 0.03

Quick one: self-cleavage of A12U A39G ?
0.08

Quick one: self-cleavage of U32C C46U ?
0.2

Quick one: self-cleavage of U20G U43A ?
0.03

Quick one: self-cleavage of C3A U28A ?
0.32

Quick one: self-cleavage of U32G U34A ?
0.04

Quick one: self-cleavage of C13U U43C ?
0.1
